All values here come from paper PMC10397247.

Target: T1, 4H816-AA
T1 chain: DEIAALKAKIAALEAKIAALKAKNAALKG
Assay: two-hybrid library CCmax;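 further: natural log of median RNA to DNA barcode read ratio; higher means stronger binding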
Details: mean of both orientations
Parameter: interaction score. Scope: all listed entries.
Give a plain numeric answer without units written out.

Worked cases, answers included:
- BINDER: "DEIAALKAKIAALEAEIAALEAKNAALEG [4H775-AA]"
  RESULT: 1.66
- BINDER: "DKIAALKAEIAALKAKNAALKAKNAALEG [4H2687-AA]"
  RESULT: -1.46
- BINDER: "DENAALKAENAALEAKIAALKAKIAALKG [4H1710-AA]"
  RESULT: -0.912

Attention now turns to another entry.
[in] Given the binder DKIAALKAEIAALKAENAALEAKIAALKG [4H2646-AA] , what is its reported interaction score?
[out] -1.37
